Reported IC50 values follow for various compounds
- target_desc: HIV-1 RT (Human immunodeficiency virus type 1 group M subtype B)
- Construct: The biotin-dUTP was incorporated by reverse transcriptase (Sigma, St. Louis, MO, USA); purchased Sigma
- procedure_text: Inhibitory activity against HIV-1 RT (biotin-dUTP incorporation, colorimetric)
- Format: biochemical
- conditions: mean of three separate experiments, variation less than 15%
assay_metric: IC50 (µM)

compound="O=c1cc(Cc2cc(F)cc(F)c2)nc(SCCOc2ccc([N+](=O)[O-])cc2)[nH]1 [7r]" qualifier_operator== value_observed=1.31
compound="CC(=O)c1ccc(CSc2nc(Cc3cc(F)cc(F)c3)c(I)c(=O)[nH]2)cc1 [8i]" qualifier_operator== value_observed=4.03
compound="Cc1cc(C)cc(Cc2nc(SCCOc3ccc([N+](=O)[O-])cc3)[nH]c(=O)c2I)c1 [8q]" qualifier_operator== value_observed=1.31
compound="O=c1cc(Cc2ccccc2)nc(SCc2ccc([N+](=O)[O-])cc2)[nH]1 [7a, 2-(4-Nitrobenzylthio)-6-benzyluracil]" qualifier_operator=> value_observed=100
compound="CC(C)c1c(Cc2ccccc2)n(COCc2ccccc2)c(=O)[nH]c1=O [TNK-651, reference compound]" qualifier_operator== value_observed=0.14
compound="O=c1[nH]c(SCc2ccc([N+](=O)[O-])cc2)nc(Cc2ccccc2)c1I [8a]" qualifier_operator== value_observed=9.2
compound="Cc1cc(C)cc(Cc2nc(SCCCOc3ccccc3)[nH]c(=O)c2I)c1 [8t]" qualifier_operator== value_observed=12.9
compound="N#Cc1ccc(CSc2nc(Cc3cc(F)cc(F)c3)c(I)c(=O)[nH]2)cc1 [8f]" qualifier_operator== value_observed=4.49
compound="CC(=O)c1ccc(CSc2nc(Cc3ccccc3)c(I)c(=O)[nH]2)cc1 [8g]" qualifier_operator== value_observed=13.8
